# experiment: Growth inhibition of human HEK293 cells overexpressing human ABCG2 after 72 hrs by MTT assay
# Type: ADME, cell-based
# experimental_setup: read-out: IG50
readout_label: GI50 at 72 h (µM)
Enter your answer as a number in µM; do not include the unit.

The cases that follow already have their GI50 at 72 h on record.
[
  {
    "compound": "CC1CC(=O)c2c3c(n(CCc4ccccc4)c2C1)-c1cc(OCCCCOc2ccc4c(c2)-c2c(c5c(n2CCc2ccccc2)CC(C)CC5=O)C4=O)ccc1C3=O (stereo not given)",
    "GI50 at 72 h [µM]": 109
  },
  {
    "compound": "COc1cccc(CCn2c3c(c4c(OCCCCOc5ccc6c(c5)-c5c(c7c(n5CCc5ccccc5)CC(C)CC7=O)C6=O)cccc42)C(=O)c2ccccc2-3)c1 (stereo not given)",
    "GI50 at 72 h [µM]": 295
  }
]

Could you now consider this next compound?
Need GI50 at 72 h, item COc1cccc(CCn2c3c(c4c(OCCCCOc5cccc6c5c5c(n6CCc6cccc(OC)c6)-c6ccccc6C5=O)cccc42)C(=O)c2ccccc2-3)c1
51.8
